SYSTEM UNDER TEST: Mitogen-activated protein kinase 12 (Homo sapiens) (UniProt P53778);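 note: values are averaged p38gamma kinase inhibition readings, compounds tested at 1 µM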
Sequence (P53778 whole entry): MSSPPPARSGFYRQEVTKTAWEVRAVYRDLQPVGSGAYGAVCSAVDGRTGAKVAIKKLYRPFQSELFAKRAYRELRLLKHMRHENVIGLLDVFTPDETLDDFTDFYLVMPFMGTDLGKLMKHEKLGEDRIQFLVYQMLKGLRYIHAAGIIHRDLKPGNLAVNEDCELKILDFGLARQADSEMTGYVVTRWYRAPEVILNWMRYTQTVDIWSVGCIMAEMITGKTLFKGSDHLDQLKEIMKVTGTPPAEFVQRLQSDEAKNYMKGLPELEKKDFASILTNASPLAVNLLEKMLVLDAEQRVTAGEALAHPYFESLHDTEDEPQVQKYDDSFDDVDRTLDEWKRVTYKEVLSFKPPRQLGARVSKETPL
TEST SETTINGS: at 1 µM
I'd be grateful if you could share measured inhibition for these entries.
One number for each entry, in %.

- SMILES REPRESENTATION: "COc1ccc(-c2nn3ncccc3c2-c2ccnc(Nc3cccc(C(F)(F)F)c3)n2)cc1"
  SYSTEM UNDER TEST: "Mitogen-activated protein kinase 12 (Homo sapiens) (UniProt P53778)"
  inhibition, %: 2.35
- SMILES REPRESENTATION: "NS(=O)(=O)c1ccc(NC=C2C(=O)Nc3ccc4ncsc4c32)cc1"
  SYSTEM UNDER TEST: "Mitogen-activated protein kinase 12 (Homo sapiens) (UniProt P53778)"
  inhibition, %: 5.67
- SMILES REPRESENTATION: "CN(C)C(=O)O[C@H]1CN[C@H](C#Cc2cc3ncnc(Nc4ccc(OCc5cccc(F)c5)c(Cl)c4)c3s2)C1"
  SYSTEM UNDER TEST: "Mitogen-activated protein kinase 12 (Homo sapiens) (UniProt P53778)"
  inhibition, %: 1.22
- SMILES REPRESENTATION: "NC(=O)c1sc(-n2cnc3ccccc32)cc1OCc1ccccc1Br"
  SYSTEM UNDER TEST: "Mitogen-activated protein kinase 12 (Homo sapiens) (UniProt P53778)"
  inhibition, %: 5.59
- SMILES REPRESENTATION: "FC(F)(F)c1ccc(-c2nn3ncccc3c2-c2ccnc(Nc3ccc4c(c3)OCCO4)n2)cc1"
  SYSTEM UNDER TEST: "Mitogen-activated protein kinase 12 (Homo sapiens) (UniProt P53778)"
  inhibition, %: 2.26
- SMILES REPRESENTATION: "C[C@@H](Oc1cc(-n2cnc3ccc(OCC4CCN(C)CC4)cc32)sc1C(N)=O)c1ccccc1C(F)(F)F"
  SYSTEM UNDER TEST: "Mitogen-activated protein kinase 12 (Homo sapiens) (UniProt P53778)"
  inhibition, %: -2.08
- SMILES REPRESENTATION: "NS(=O)(=O)c1ccc(N/N=C2\\C(=O)Nc3ccc(Cl)cc32)cc1"
  SYSTEM UNDER TEST: "Mitogen-activated protein kinase 12 (Homo sapiens) (UniProt P53778)"
  inhibition, %: 2.14
- SMILES REPRESENTATION: "COC(=O)Nc1nc2cc(Oc3ccc(NC(=O)Nc4cccc(Br)c4)cc3)ccc2[nH]1"
  SYSTEM UNDER TEST: "Mitogen-activated protein kinase 12 (Homo sapiens) (UniProt P53778)"
  inhibition, %: 1.52

Parameters: items (list). Returns: inhibition for each item.
1. O=C(Nc1ccc(Oc2ccc3[nH]c(NC(=O)c4ccco4)nc3c2)cc1)Nc1cc(C(F)(F)F)ccc1F
2. NC(=O)c1cccc(Nc2nccc(Nc3cccc(F)c3)n2)c1

1. 3.11
2. 1.35

Parameters: items (list). Returns: inhibition for each item.
1. Cc1ccc(NC(=O)CC2CC2)cc1-c1ccc(C(=O)NCC2CC2)cc1
2. COC(=O)c1ccc2c(c1)C(=Cc1cc(Br)c(O)c(Br)c1)C(=O)N2
3. COc1cc(/C=N/Nc2ncnc3c2cnn3C(C)C)ccc1O
4. COc1cccc(-n2ncc3c(N/N=C/c4ccc(S(C)(=O)=O)cc4)ncnc32)c1
5. COc1ccc2ncnc(Nc3ccc(OCc4ccccc4)cc3)c2c1

1. 2.02
2. 7.78
3. 1.85
4. 2.32
5. 1.88

Parameters: items (list). Returns: inhibition for each item.
1. O=C1Nc2ccc(-c3cccnc3)cc2C1=Cc1cc(Br)c(O)c(Br)c1
2. CS(=O)(=O)CCNCc1nc(-c2ccc3ncnc(Nc4ccc(OCc5cccc(C(F)(F)F)c5)cc4)c3c2)cs1
3. CN(c1ccc(NC(=O)Nc2ccc(OC(F)(F)F)cc2)cc1)c1ccnc(Nc2cccc(S(N)(=O)=O)c2)n1
4. Cc1cc(-c2ccccn2)cc(C)c1/C=C/c1cncc(-c2nn[nH]n2)c1
5. CN(C)C(=O)O[C@@H]1CN[C@@H](C#Cc2cc3ncnc(Nc4ccc(OCc5cccc(F)c5)c(Cl)c4)c3s2)C1
6. Oc1cccc(-c2nc(-c3ccccc3)[nH]c2-c2ccncc2)c1

1. 2.31
2. 2.12
3. 11.2
4. 5.02
5. 1.28
6. 1.56

Look at this compound and give its reported inhibition. Cc1cc(Cl)cc2c1NC(=O)C2=NNc1ccc(S(N)(=O)=O)cc1
2.01
